A compilation of Ki values for Carbonic anhydrase 9 (Homo sapiens, UniProt Q16790) from the published literature.
Measure Name: Ki (nM)

Consider the worked cases shown below.
# input Requested field: Ki. Item: `NS(=O)(=O)c1cc(-c2nnc(-c3ccccc3)s2)c(Cl)cc1Cl`
# output 13.6

# input Requested field: Ki. Item: `C=C(Cl)CNS(=O)(=O)c1ccc(N)cc1`
# output 90

# input Requested field: Ki. Item: `CCCN(CCC)C(=O)S`
# output 12.5

# input Requested field: Ki. Item: `NS(=O)(=O)[C@@H]1O[C@H](CO)[C@@H](O[C@@H]2O[C@H](CO)[C@H](O)[C@H](O)[C@H]2O)[C@H](O)[C@H]1O`
# output 4190

# input Requested field: Ki. Item: `NS(=O)(=O)c1ccc(-c2nnc3n2N=C(c2ccc([N+](=O)[O-])cc2)CS3)cc1`
# output 115

# input Requested field: Ki. Item: O=C(c1ccccc1)c1ccc2n1CCC2C(=O)NCCOc1ccc2oc(=O)ccc2c1 (racemic)
# output 31.8

P = NS(=O)(=O)c1ccc(-c2cn([C@@H]3O[C@H](CO)[C@@H](O[C@H]4O[C@H](CO)[C@@H](O)[C@H](O)[C@H]4O)[C@H](O)[C@H]3O)nn2)cc1
Q = CCCN1C(=O)/C(=N\c2ccc(NC(=O)Nc3ccc(S(N)(=O)=O)cc3)cc2)c2cc(Br)ccc21
R = COC(=O)Cc1c(C)c2ccc(OCC(=O)c3ccc(F)cc3)cc2oc1=O
S = CC(C)c1ccccc1NC(=O)Nc1ccc(S(N)(=O)=O)cc1
T = CCOC(=O)[C@@H]1C[C@H]1Cc1cc(OC)c(OC)c(Br)c1Br
# input // sort entries: Ki, high to low The labels, placed in the requested order, form the answer.
# output T, P, R, Q, S

1 = CC1(C)CC(=O)C2=C(C1)N(c1ccc(S(N)(=O)=O)cc1)C1=C(C(=O)CC(C)(C)C1)C2c1ccc(N)cc1
2 = CC1=NN(c2ccc(Cl)cc2)C(=O)/C1=N/Nc1ccc(S(N)(=O)=O)cc1
# input Form field 'greater Ki' accepts 1 or 2 ; which applies? Field: selected label. Fill in the label of the entry you choose.
# output 1
(1: 1000 nM, 2: 1.1 nM)

I = O=c1[nH]c2cc(Cl)c(Cl)cc2c(=O)n1O
II = CCCCc1ccc(-c2cc(C(=O)O)n[nH]2)cc1
# input Form field 'greater Ki' accepts I or II ; which applies? Field: selected label. Fill in the label of the entry you choose.
# output II

a = COC1=C(S(N)(=O)=O)C2NS(=O)(=O)c3cnccc3N2C=C1 (stereo not given)
b = O=C(O)c1ccc2c(c1)B(O)OC2
# input Form field 'greater Ki' accepts a or b ; which applies? Field: selected label. Fill in the label of the entry you choose.
# output b
(b: 400 nM, a: 13.5 nM)

* * *

A compilation of Ki values for Carbonic anhydrase 9 (Homo sapiens) from the published literature.
Measure Name: Ki (nM)

Consider the worked cases shown below.
# input Requested field: Ki. Item: `Nc1ccc2[nH]c(=O)n(O)c(=O)c2c1`
# output 273

# input Requested field: Ki. Item: `CCCOc1ccc2c(c1)CCN=C2c1ccc(S(N)(=O)=O)cc1`
# output 16.1

# input Requested field: Ki. Item: `NCc1ccc2oc(=O)ccc2c1`
# output 8400

# input Requested field: Ki. Item: `NS(=O)(=O)OCCCCCCCOS(N)(=O)=O`
# output 10.1

# input Requested field: Ki. Item: `Cc1ccc(S(=O)(=O)Nc2ccc(C3C4=C(CC(C)(C)CC4=O)N(c4ccc(S(N)(=O)=O)cc4)C4=C3C(=O)CC(C)(C)C4)cc2)cc1`
# output 100

# input Requested field: Ki. Item: `CCCCOc1ccc(NC(=O)Nc2ccc(S(N)(=O)=O)cc2)cc1`
# output 0.8

# input Requested field: Ki. Item: `COc1ccc2c(c1)OC1(CCN(c3ccc(S(N)(=O)=O)cc3[N+](=O)[O-])CC1)CC2=O`
# output 2750

# input Requested field: Ki. Item: `NS(=O)(=O)c1ccc(NC(=O)Nc2ccc(/N=C3\C(=O)N(Cc4cccc(F)c4)c4ccc(Cl)cc43)cc2)cc1`
# output 58.8

# input Requested field: Ki. Item: `S=c1ccc2ccccc2o1`
# output 6700

# input Requested field: Ki. Item: `COc1cccc(C#Cc2ccc(S(N)(=O)=O)cc2)c1`
# output 6.5

a = N/C(=N\S(=O)(=O)c1ccccc1SCc1cccc2ccccc12)NNc1nc(Cl)nc(Nc2ccc(S(N)(=O)=O)cc2)n1
b = NS(=O)(=O)c1ccc(CC/N=C/c2ccc(-c3ccccc3)cc2)cc1
c = COC(=O)C(CC(C)C)NC(=O)Nc1ccc(S(N)(=O)=O)cc1 (stereo not given)
# input Form: Sort by [Ki] Order [ ascending ] The labels, placed in the requested order, form the answer.
# output a, b, c
(a: 41.1 nM, b: 244 nM, c: 937 nM)

P = C[C@]12CC[C@@H]3c4ccc(CS(N)(=O)=O)cc4CC[C@H]3[C@@H]1CCC2=O
Q = CC1(C)OB(c2ccc(OS(N)(=O)=O)cc2)OC1(C)C
# input Form field 'greater Ki' accepts P or Q ; which applies? Field: selected label. Fill in the label of the entry you choose.
# output P
(P: 208 nM, Q: 80 nM)

a = NS(=O)(=O)c1nnc(NC(=O)CN(CCN(CCN(CC(=O)O)CC(=O)Nc2nnc(S(N)(=O)=O)s2)CC(=O)O)CC(=O)O)s1
b = NS(=O)(=O)c1ccc(NC(=O)CSC(=S)N2CCOCC2)cc1
# input Form field 'greater Ki' accepts a or b ; which applies? Field: selected label. Fill in the label of the entry you choose.
# output b
(b: 162 nM, a: 8.3 nM)

P = NS(=O)(=O)c1ccc(NC(=O)CN2C(=O)NC3(CCCCC3)C2=O)cc1
Q = NS(=O)(=O)c1ccc(CCNC(=S)N[C@@H]2O[C@H](CO)[C@@H](O)[C@H](O)[C@H]2O)cc1
# input For the pair P and Q , which member has the lower Ki number? Field: selected label. Fill in the label of the entry you choose.
# output P
(P: 3.3 nM, Q: 8.7 nM)

* * *

A compilation of Ki values for Carbonic anhydrase 9 (Homo sapiens, UniProt Q16790) from the published literature.
Measure Name: Ki (µM)

Consider the worked cases shown below.
# input // lookup Ki | system=Carbonic anhydrase 9 (Homo sapiens, UniProt Q16790) | key= `NC(=O)c1c(COc2ccc(S(N)(=O)=O)cc2)no[n+]1[O-]`
# output 0.0323

# input // lookup Ki | system=Carbonic anhydrase 9 (Homo sapiens, UniProt Q16790) | key= `C/C(=N\Nc1ccc(S(N)(=O)=O)cc1)c1ccc(N2CCCC2)cc1`
# output 0.0183

# input // lookup Ki | system=Carbonic anhydrase 9 (Homo sapiens, UniProt Q16790) | key= `COc1cccc(-c2noc(-c3csc(S(N)(=O)=O)c3)n2)c1`
# output 0.0022

# input // lookup Ki | system=Carbonic anhydrase 9 (Homo sapiens, UniProt Q16790) | key= `O=C(N/N=C/c1cccnc1)Nc1n[nH]c(=S)s1`
# output 5.05

# input // lookup Ki | system=Carbonic anhydrase 9 (Homo sapiens, UniProt Q16790) | key= `COC(=O)c1ccc(Cc2ccc(-c3ccc(S(N)(=O)=O)cc3)cc2)cc1`
# output 0.0767

a = NS(=O)(=O)c1ccc(OCC(c2ccccc2)c2ccccc2)cc1
b = COc1cc2ccc(=O)oc2cc1O[C@@H]1O[C@H](CO)[C@@H](O)[C@H](O)[C@H]1O
c = O=C(Nc1cc2c(=O)n(O)c(=O)[nH]c2cc1Cl)c1ccccc1
d = NS(=O)(=O)c1ccc(OCc2ccc(Br)cc2)cc1
e = NS(=O)(=O)c1ccc(-c2noc(C3CC3)n2)cc1
# input // sort entries: Ki, high to low The labels, placed in the requested order, form the answer.
# output b, c, a, d, e
(b: 8.72 µM, c: 0.0588 µM, a: 0.0341 µM, d: 0.0035 µM, e: 0.0019 µM)

P = CC(=O)OC[C@H]1O[C@@H](NC(=S)NNC(=O)c2ccc(S(N)(=O)=O)cc2)[C@H](OC(C)=O)[C@@H](OC(C)=O)[C@H]1OC(C)=O
Q = NCCNc1cccc2ccccc12
R = Cc1c(C(=O)/C=C/NCCc2ccc(S(N)(=O)=O)cc2)sc2nc3ccccc3n12
# input // sort entries: Ki, high to low The labels, placed in the requested order, form the answer.
# output Q, R, P
(Q: 0.51 µM, R: 0.0205 µM, P: 0.0033 µM)

I = NS(=O)(=O)c1cccc(/N=C2\NC(=O)/C(=C3/C(=O)Nc4ccc(Cl)cc43)S2)c1
II = Nc1nc(-c2ccc(NC(=O)CCNCc3ccc(S(N)(=O)=O)cc3)cc2)cn2c(=O)n(-c3ccccc3)nc12
# input Form field 'greater Ki' accepts I or II ; which applies? Field: selected label. Fill in the label of the entry you choose.
# output II
(II: 0.319 µM, I: 0.062 µM)

a = Cc1nn(-c2ccc(S(N)(=O)=O)cc2)c(Cl)c1C1CC(c2ccc(Cl)cc2)=NN1c1ccc(S(N)(=O)=O)cc1 (centres undefined)
b = NS(=O)(=O)c1cccc(/N=C2\NC(=O)/C(=C3/C(=O)N(Cc4ccccc4)c4ccccc43)S2)c1
c = CC(=O)N1N=C(c2cccc(OS(N)(=O)=O)c2)CC1c1ccc(C(F)(F)F)cc1 (centres undefined)
d = Cc1ccc(C2=NN(c3ccc(S(N)(=O)=O)cc3)C(c3c(C)nn(-c4ccc(S(N)(=O)=O)cc4)c3Cl)C2)cc1 (centres undefined)
# input Form: Sort by [Ki] Order [ ascending ] The labels, placed in the requested order, form the answer.
# output c, a, d, b

P = CC1=CC(=O)N(CC(=O)c2ccc(C#N)cc2)S(=O)(=O)O1
Q = O=C(Nc1ccccc1)Nc1cc2c(=O)n(O)c(=O)[nH]c2cc1Cl
R = CCC(=O)O[C@@H]1O[C@H](COS(N)(=O)=O)[C@@H](OC(=O)CC)[C@H](OC(=O)CC)[C@H]1OC(=O)CC
S = C#CCN1C(=O)c2ccccc2S1(=O)=O
# input Form: Sort by [Ki] Order [ ascending ] The labels, placed in the requested order, form the answer.
# output P, Q, R, S

A = NS(=O)(=O)c1ccc(-n2c(=O)c3cc4c(=O)n(-c5ccc(S(N)(=O)=O)cc5)c(=O)c4cc3c2=O)cc1
B = NS(=O)(=O)c1ccc(-c2ccc(C(=O)c3ccc(C(=O)O)cc3)cc2)cc1
C = Cc1cc(C)c2c(c1)NC(=O)NS2(=O)=O
D = CCOP(=O)(OCC)C(Nc1ccc(S(N)(=O)=O)cc1)c1ccc(OC)cc1 (centres undefined)
# input // sort entries: Ki, high to low The labels, placed in the requested order, form the answer.
# output C, A, D, B

a = CC(C)(C)OC(=O)NCCOc1ccc(S(N)(=O)=O)cc1
b = CC1(C)CC(=O)C2=C(C1)N(c1ccc(S(N)(=O)=O)cc1)C1=C(C(=O)CC(C)(C)C1)C2c1ccc(NS(=O)(=O)c2ccc(Br)cc2)cc1
# input For the pair a and b , which member has the lower Ki number? Field: selected label. Fill in the label of the entry you choose.
# output a

A = NS(=O)(=O)c1ccc(NC(=O)Nc2cc(C(F)(F)F)ccc2F)cc1
B = COc1ccc(C[C@@H]2C[C@@H]2C(=O)O)cc1OC
C = NS(=O)(=O)c1ccc(-n2nc(CO)cc2-c2ccc3c(ccc4ccccc43)c2)cc1
D = NS(=O)(=O)c1ccc(C/N=C/c2ccccc2OCc2cn(CCCOc3ccc4ccc(=O)oc4c3)nn2)cc1
# input // sort entries: Ki, high to low The labels, placed in the requested order, form the answer.
# output B, C, D, A
